# Tested on: LNCaP cells
# assay_details: Cell growth inhibition (MTT colorimetric assay), LNCaP
# Format: cell-based, human
# assay_setup: LNCaP (mutant AR), MTT, means of three experiments; called IC50; read-out: Cytotoxicity GI50 (nM) LNCaP
reported_property: GI50 (nM)
Answers are plain numbers, in nM.

[[record]]
molecule = "Cc1ccc(NS(=O)(=O)c2ccc(F)cc2)c(C(=O)O)c1 [Compound 12]"
quantitative_readout = 10700


Consider the molecule shown here: O=[N+]([O-])c1ccccc1NS(=O)(=O)c1ccccc1 [Compound 7, (2-Nitrophenyl)(phenylsulfonyl)amine] What is its recorded GI50? 14.1

====

# Test system: LNCaP cells
# assay_details: Cell growth inhibition (MTT colorimetric assay), LNCaP
# Type: cell-based, human
# assay_setup: Homo sapiens; LNCaP cells (Table 4); read-out: IC50 (μM), effect on LNCaP cell viability
reported_property: IC50 (µM)
Numbers only, in µM.

Consider the molecule shown here: Cc1ccc(S(=O)(=O)Nc2ccc(C)cc2[N+](=O)[O-])cc1 [BTB01434, reference compound] What is its recorded IC50? 39.8

====

# Test system: androgen receptor (AR)
# assay_details: AR protein expression down-regulation in LNCaP cells (Western blot)
# Assay type: cell-based, human
# assay_setup: AR down-regulation, LNCaP cells (Table 5); read-out: ARDA EC50
reported_property: pEC50
Give bare numbers, as −log10 of the molar value.

Consider the molecule shown here: Cc1ccc(S(=O)(=O)Nc2ccc(C)cc2[N+](=O)[O-])cc1 [BTB01434, reference compound] What is its recorded pEC50? 4.12

====

# Test system: PC-3 cells
# assay_details: Cell growth inhibition (MTT assay), PC-3
# Assay type: cell-based, human
# assay_setup: PC-3 (AR null), means of three experiments, called IC50, read-out: Cytotoxicity GI50 (nM) PC-3
reported_property: GI50

Consider the compound shown here: "Cc1ccc(NS(=O)(=O)c2ccc(F)cc2)c(C(=O)O)c1" What is its recorded GI50? > 100000 nM
